# method_summary: log P by HPLC (OECD Guideline 117), method [b] neutral range
# Type: physicochemical
# condition_label: HPLC, method [b] neutral range
Could you label it MET if measured logP[b] is 3 or higher, and NOT MET otherwise?

Quick check, logP[b] >= 3? Cc1cc(F)c(-n2nc(OC3CCOC3)n(C)c2=O)cc1[S+]([O-])CC(F)(F)F (centres unmarked)
NOT MET

Quick check, logP[b] >= 3? Cc1cc(F)c(-n2nc(NC(C)C)n(N)c2=O)cc1SCC(F)(F)F
NOT MET

Quick check, logP[b] >= 3? COc1nn(-c2cc([S+]([O-])CC(F)(F)F)c(Cl)cc2F)c(=O)n1C1CC1 (centres unmarked)
NOT MET

Quick check, logP[b] >= 3? Cc1cc(Cl)c(-n2nc(OCC(F)(F)F)n(C3CC3)c2=O)cc1SCC(F)(F)F
MET

Quick check, logP[b] >= 3? CCCCc1nn(-c2cc(SCC(F)(F)F)c(C)cc2F)c(=O)o1
MET

Quick check, logP[b] >= 3? COCCn1c(C(F)(F)F)nn(-c2cc(SCC(F)(F)F)c(C)cc2F)c1=O
MET

Quick check, logP[b] >= 3? CSc1nn(-c2cc([S+]([O-])CC(F)(F)F)c(C)cc2F)c(=O)n1C (centres unmarked)
NOT MET

Quick check, logP[b] >= 3? CCOc1nn(-c2cc([S+]([O-])CC(F)(F)F)c(C)cc2F)c(=O)n1C1CC1 (centres unmarked)
NOT MET

Quick check, logP[b] >= 3? Cc1cc(F)c(-n2nc(C3CC3)n(C(C)C)c2=S)cc1SCC(F)(F)F
MET

Quick check, logP[b] >= 3? CCOC1=CC(=O)N(c2cc([S+]([O-])CC(F)(F)F)c(C)cc2F)C1 (centres unmarked)
NOT MET

Quick check, logP[b] >= 3? CC1=CC(=O)N(c2cc(SCC(F)(F)F)c(C)cc2F)C1=O
MET

Quick check, logP[b] >= 3? Cc1cc(C)c([S+]([O-])CC(F)(F)F)cc1-n1ncn(C(C)(C)C)c1=O (centres unmarked)
NOT MET

Quick check, logP[b] >= 3? O=c1n(-c2cc([S+]([O-])CC(F)(F)F)c(Cl)cc2F)nc(OCC(F)(F)F)n1C1CC1 (racemic)
MET

Quick check, logP[b] >= 3? Cc1cc(F)c(-n2nc(C(C)(C)C)oc2=O)cc1SCC(F)(F)F
MET

Quick check, logP[b] >= 3? CCCSc1nn(-c2cc([S+]([O-])CC(F)(F)F)c(C)cc2F)c(=O)n1C (centres unmarked)
NOT MET

Quick check, logP[b] >= 3? CCCc1nn(-c2cc(SCC(F)(F)F)c(C)cc2F)c(=O)n1C1CC1
MET
